Target: human melanocortin-4 receptor (recombinant hMC4-R) (human), P32245
Sequence (P32245 whole entry): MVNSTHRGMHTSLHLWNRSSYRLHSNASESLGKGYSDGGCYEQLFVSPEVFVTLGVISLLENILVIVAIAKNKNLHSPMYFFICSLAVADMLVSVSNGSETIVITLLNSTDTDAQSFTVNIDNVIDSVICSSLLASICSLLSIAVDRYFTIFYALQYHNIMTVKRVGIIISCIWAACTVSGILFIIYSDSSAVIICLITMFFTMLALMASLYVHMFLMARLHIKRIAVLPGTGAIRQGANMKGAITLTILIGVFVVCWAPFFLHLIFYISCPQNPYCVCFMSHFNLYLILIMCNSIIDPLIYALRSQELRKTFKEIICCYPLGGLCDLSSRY
Experiment: competition with labelled NDP-α-MSH ([I125] or Eu), hMC4-R HEK-293 membranes
Conditions: remark: other sources report otherwise
Bridge positions count the residues as written; N and C are the ends. Square brackets hold non-standard residues; d marks the D form. Orn = NCCC[C@H](N)C(=O)O; Dab = NCC[C@H](N)C(=O)O
Examples of binders with documented pKi follow.
Notebook: values listed as pKi are -log10 of the concentration (mol/L).

These recorded examples may help you get a feel for the data.
Ac-RD[Dab](Ac)[dF]RWK-NH2 (lactam 2-7; SMILES CC(=O)NCC[C@@H]1NC(=O)[C@@H](NC(=O)[C@H](CCCNC(=N)N)NC(C)=O)CC(=O)NCCCC[C@@H](C(N)=O)NC(=O)[C@H](Cc2c[nH]c3ccccc23)NC(=O)[C@H](CCCNC(=N)N)NC(=O)[C@@H](Cc2ccccc2)NC1=O) [Asp...Lys analog of peptide No. 18: Ac-Arg-cyclo(Asp-Dab(Acetyl)-D-Phe-Arg-Trp-Lys)-NH2]: 7.48
Ac-RD[Dab][dF]RWK-OH (lactam 2-7) [Asp...Lys analog of peptides No. 5 and No. 42: Ac-Arg-cyclo(Asp-Dab-D-Phe-Arg-Trp-Lys)-OH]: 7.25

# pKi (binder: Ac-RD[Orn][dF]RWK-OH (lactam 2-7) [Asp...Lys analog of peptide No. 7: Ac-Arg-cyclo(Asp-Orn-D-Phe-Arg-Trp-Lys)-OH] ) is 7.74
